// data source = patent US20080096897A1

Biological target: recombinant human MMP2 (Homo sapiens, UniProt P08253)
Sequence (P08253 110-660): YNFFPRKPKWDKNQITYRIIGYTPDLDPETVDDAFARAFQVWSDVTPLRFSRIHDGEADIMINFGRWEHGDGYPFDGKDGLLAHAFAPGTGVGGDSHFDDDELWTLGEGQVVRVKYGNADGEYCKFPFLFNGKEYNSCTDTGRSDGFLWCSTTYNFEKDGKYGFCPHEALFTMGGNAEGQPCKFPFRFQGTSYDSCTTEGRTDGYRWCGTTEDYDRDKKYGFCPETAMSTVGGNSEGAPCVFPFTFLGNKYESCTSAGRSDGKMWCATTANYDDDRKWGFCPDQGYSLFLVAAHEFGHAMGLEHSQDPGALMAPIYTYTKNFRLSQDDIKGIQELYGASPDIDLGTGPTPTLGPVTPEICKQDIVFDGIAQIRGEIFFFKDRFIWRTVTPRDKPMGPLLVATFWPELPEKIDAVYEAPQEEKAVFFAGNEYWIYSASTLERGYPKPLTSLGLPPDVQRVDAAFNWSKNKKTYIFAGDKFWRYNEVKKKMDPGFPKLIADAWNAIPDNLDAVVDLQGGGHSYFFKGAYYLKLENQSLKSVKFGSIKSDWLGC
Test: MMP inhibition on isolated enzymes, fluorigenic peptide substrate
Type: biochemical
Settings: recombinant human MMP2, substrate ZGly-Gly-ArgAMC; read-out: IC50 (nM) values on isolated enzymes MMP-2
observable: IC50 (nM)

> print(dat)
                                chem.smiles                                    target  observable  numeric.result
1  O=C1CCC(=O)N(c2ccc(N3CCN(C4(c5ccc(-c6ccccc6)cc5)C(=O)NC(=O)NC4=O)CC3)cc2)C1  recombinant human MMP2 (Homo sapiens, UniProt P08253)        IC50              93

---

Biological target: recombinant human MMP2 (Homo sapiens, UniProt P08253)
Sequence (P08253 110-660): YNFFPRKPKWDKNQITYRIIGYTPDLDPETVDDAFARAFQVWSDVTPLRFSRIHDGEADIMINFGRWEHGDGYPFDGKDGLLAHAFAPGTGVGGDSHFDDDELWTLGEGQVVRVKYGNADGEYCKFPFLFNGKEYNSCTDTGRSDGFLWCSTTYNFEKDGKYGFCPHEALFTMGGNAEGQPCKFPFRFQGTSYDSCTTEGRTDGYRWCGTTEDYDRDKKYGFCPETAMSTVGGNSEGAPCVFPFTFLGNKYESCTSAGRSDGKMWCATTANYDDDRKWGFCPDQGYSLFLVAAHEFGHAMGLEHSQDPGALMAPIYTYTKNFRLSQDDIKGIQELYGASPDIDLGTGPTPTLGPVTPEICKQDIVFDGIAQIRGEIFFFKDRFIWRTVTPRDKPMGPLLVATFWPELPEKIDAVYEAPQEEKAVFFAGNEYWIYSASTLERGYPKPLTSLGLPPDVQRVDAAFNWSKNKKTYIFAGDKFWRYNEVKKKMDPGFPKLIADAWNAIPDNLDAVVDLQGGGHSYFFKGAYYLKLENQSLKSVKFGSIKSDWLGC
Assay: MMP inhibition on isolated enzymes, fluorigenic peptide substrate
Assay type: biochemical
Each entry below carries its reported IC50.
observable: IC50

> print(dat)
                                   molecule  result
1  O=C(O)CCC(=O)Nc1ccc(N2CCN(C3(c4ccc(-c5ccccc5)cc4)C(=O)NC(=O)NC3=O)CC2)cc1 [example 2]  110 nM
2  O=C1NC(=O)C(c2ccc(-c3ccccc3)cc2)(N2CCN(c3ccc(N4C(=O)CCC4=O)cc3)CC2)C(=O)N1 [example 4]   75 nM
3  O=C1NC(=O)C(c2ccc(-c3ccccc3)cc2)(N2CCN(c3ccc([N+](=O)[O-])cc3)CC2)C(=O)N1 [Ro 28-2653, reference compound]  246 nM
4  O=C(O)CCCC(=O)Nc1ccc(N2CCN(C3(c4ccc(-c5ccccc5)cc4)C(=O)NC(=O)NC3=O)CC2)cc1 [example 3]   98 nM
